applied conditions: 298.15 K; 100 kPa; Liquid; Frequency=3 MHz; Sing-around technique in a fixed-path interferometer
Consider the following compounds and their measured speed of sound readings.
Give just the numeric value; m/s need not be written.

Look over these answered cases.
compound="CCOC(=O)OCC [diethyl carbonate]" experimental_readout="speed of sound" uom=m/s value_measured=1177.5
compound=Nc1ccccc1 experimental_readout="speed of sound" uom=m/s value_measured=1636.8
compound=O=Cc1ccccc1 experimental_readout="speed of sound" uom=m/s value_measured=1457.3

Input: // speed of sound lookup, key: N#Cc1ccccc1
Output: 1415.6

* * *

assay notes: refractive index (Na D-line) (dimensionless)
applied conditions: 323.15 K; 100 kPa; Liquid; Standard Abbe refractometry
experimental readout: refractive index
Field format: numeric only.

Look over these answered cases.
compound="CCOC(=O)OCC [diethyl carbonate]" experimental_readout="refractive index" value_measured=1.371
compound=Nc1ccccc1 experimental_readout="refractive index" value_measured=1.5661

Input: // refractive index lookup, key: O=Cc1ccccc1
Output: 1.5282
